- System: MCF7 breast
- PROCEDURE TEXT: NCI-60 one-dose screen, 48 h
- STATED CONDITIONS: 10 µM unless noted
This is part of a sample that, as a whole, favours compounds with a hit. Of some 83,000 tested, about 20% had one in any assay. Activity calls are given as the source filed them. Rule for the calls: active = growth percent below 10; inactive = the rest.
Valid outcomes are listed here; reply with one: true (1) for active, false (0) for inactive

Answered cases to consult:
[[record]]
molecule = "CC1=C(C(=O)Nc2ccccc2)C(c2ccc3c(c2)OCO3)NC(=S)N1 (centres undefined)"
label = "false (0)"

[[record]]
molecule = "Cn1c(=O)c2[nH]c(SCC(=O)Nc3ccc(C(=O)/C=C/c4ccccc4Cl)cc3)nc2n(C)c1=O"
label = "false (0)"

[[record]]
molecule = "CC(C)N1C(=O)/C(=c2\\sc3n(c2=O)C2C(NN=3)N(C)C(=O)N2C)c2ccccc21 (centres undefined)"
label = "false (0)"

[[record]]
molecule = "CCOC(=O)/C=C1\\S/C(=N\\Nc2cc(=O)[nH]c3ccccc23)N(c2ccccc2)C1=O"
label = "false (0)"

[[record]]
molecule = "CC(C)=CCNc1ncnc2c1ncn2C1OC(CO)C(O)C1O (centres undefined)"
label = "true (1)"

[[record]]
molecule = "NC(=O)c1c(NC(=O)c2cccc(C(F)(F)F)c2)sc2c1CCC(=O)C2"
label = "true (1)"


Could you please tell me the result logged for Cc1cccc2c1C[C@@]1(C2=O)C(c2ccc(C(C)(C)C)cc2)=NOS1=O (some centres undefined) in this assay?
false (0)

Could you please tell me the result logged for `NC1=Nc2cc(OCCCCN3Cc4ccccc4C3)c(OCC3CC3)cc2C12CCCC2` in this assay?
false (0)

Could you please tell me the result logged for `CCN1CCN(CC(=O)Nc2ccc(-c3cn4c(n3)sc3cc(Oc5ccnc(C(=O)NC)c5)ccc34)cc2)CC1` in this assay?
false (0)

Could you please tell me the result logged for `COc1ccc(CNc2c3ccccc3nc3ccccc23)c(OC)c1` in this assay?
false (0)

Could you please tell me the result logged for `Fc1cc(Nc2ccc3c(OCCCN4CCOCC4)cccc3n2)ccc1Cl` in this assay?
false (0)

Could you please tell me the result logged for `CN1CCN(CCOc2ccc(-c3cnc4c(-c5cccc(F)c5F)cnn4c3)cc2)CC1` in this assay?
true (1)
